PBM binding z-score for assorted sequences
System: LXRa:RXRa (NR concentration 270 nM, RXRa partner concentration 90 nM)
Assay name: PBM binding z-score (relative to random genomic background probes); higher = stronger binding; sequences stand for … in GC…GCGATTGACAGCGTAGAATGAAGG

>  <Sequence>
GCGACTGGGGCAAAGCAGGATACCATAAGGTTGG

>  <PBM binding z-score>
-0.82

$$$$
>  <Sequence>
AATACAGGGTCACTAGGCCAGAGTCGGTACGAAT

>  <PBM binding z-score>
4.74

$$$$
>  <Sequence>
ACTAGCAGGCCAAGTTTGGGTCACCCAAACAAAG

>  <PBM binding z-score>
0.347

$$$$
>  <Sequence>
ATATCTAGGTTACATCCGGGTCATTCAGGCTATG

>  <PBM binding z-score>
4.41

$$$$
>  <Sequence>
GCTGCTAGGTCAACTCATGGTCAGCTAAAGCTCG

>  <PBM binding z-score>
2.9

$$$$
>  <Sequence>
CGAACTAGGTCAAGGACAATGAATCTCCGCACGC

>  <PBM binding z-score>
2.4

$$$$
>  <Sequence>
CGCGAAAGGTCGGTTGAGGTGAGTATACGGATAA

>  <PBM binding z-score>
1.81

$$$$
>  <Sequence>
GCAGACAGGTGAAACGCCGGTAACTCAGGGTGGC

>  <PBM binding z-score>
-0.144

$$$$
>  <Sequence>
ATATCTAGGTTAAGGGTCATTCAGGTTGGTTCGC

>  <PBM binding z-score>
5.06

$$$$
>  <Sequence>
CGTCCTAGGTCAGCAGGTCAGTGAAAGCGACGTG

>  <PBM binding z-score>
2.04

$$$$
>  <Sequence>
CAGCCTAGGTCAGGGCCTGTATAGGAGGAACGTT

>  <PBM binding z-score>
0.732

$$$$
>  <Sequence>
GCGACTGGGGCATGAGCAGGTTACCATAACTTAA

>  <PBM binding z-score>
-0.325

$$$$

###

Test system: RARb homodimer (NR concentration 270 nM)
Assay name: PBM binding z-score (relative to random genomic background probes); higher = stronger binding; sequences stand for … in GC…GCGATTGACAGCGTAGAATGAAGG
PBM binding z-score for assorted sequences
Measurement kind: PBM binding z-score

>  <Sequence>
GCTATTAGTTGAAAGGGCCACCGAATGATTCTCG

>  <Meas value>
1.19

$$$$
>  <Sequence>
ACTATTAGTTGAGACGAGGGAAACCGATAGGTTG

>  <Meas value>
-0.559

$$$$
>  <Sequence>
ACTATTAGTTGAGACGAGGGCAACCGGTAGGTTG

>  <Meas value>
1.42

$$$$
>  <Sequence>
ACTATTACTTGAGACGAGGGCAACCGATAGGTTG

>  <Meas value>
1.67

$$$$
>  <Sequence>
ACCGAAAGGTCGAAGGTGAGTATACCCACCCGAA

>  <Meas value>
2.51

$$$$
>  <Sequence>
GCTCGGAGGACAAGGTCCGAGCTTTGTCCGTAGA

>  <Meas value>
0.2

$$$$
>  <Sequence>
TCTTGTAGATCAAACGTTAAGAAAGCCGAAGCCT

>  <Meas value>
-0.779

$$$$
>  <Sequence>
ATCTCTAGGTAACAAGTTCAGAGAAAGAGAGGAC

>  <Meas value>
1.98

$$$$
>  <Sequence>
TCTATTAGTTGAAGCGCAACCGACGAGTCCGTTT

>  <Meas value>
-0.298

$$$$
>  <Sequence>
CCTGACGGGTCACGAGGTTATAGCACGACGAGCG

>  <Meas value>
3.55

$$$$
>  <Sequence>
TCGAGTAGGTTACCAAGGGGGCATTCAGCTTTCT

>  <Meas value>
1.98

$$$$
>  <Sequence>
TTACCAAGGTGAGCTGAGGTCATTGATCCAACTC

>  <Meas value>
3.91

$$$$
>  <Sequence>
GCAGACAGTTGAAACGCAGGTAACTCAGGGTGGC

>  <Meas value>
-0.639

$$$$
>  <Sequence>
ACTAGCAGGACAAGTTTGGGTCACTCAAACAAAG

>  <Meas value>
2.28

$$$$
>  <Sequence>
CCTTATGGGTCACTGACAGGTTATAGCATTTGGA

>  <Meas value>
3.37

$$$$
>  <Sequence>
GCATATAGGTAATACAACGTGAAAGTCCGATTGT

>  <Meas value>
-0.603

$$$$
>  <Sequence>
CCGACTGGGGCAAGGTTACCATGACGCACAGCCA

>  <Meas value>
1.41

$$$$
>  <Sequence>
CCTATTAGTTGACCATAAGGGCAACCGGAGCTCG

>  <Meas value>
2.03

$$$$
>  <Sequence>
AGAATAAGGTTATACGTAGATCAGGGAAGAAAGT

>  <Meas value>
0.925

$$$$
>  <Sequence>
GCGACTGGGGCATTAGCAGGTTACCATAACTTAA

>  <Meas value>
0.877

$$$$
>  <Sequence>
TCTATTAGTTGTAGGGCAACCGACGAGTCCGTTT

>  <Meas value>
0.489

$$$$
>  <Sequence>
GCTTACGGGTCAACGGTTATAGCATGAATAGAAT

>  <Meas value>
2.84

$$$$

The origin of these recorded values is the supplement of paper PMC6555819.
